B1: Azoarcus group I ribozyme (parent)
chain: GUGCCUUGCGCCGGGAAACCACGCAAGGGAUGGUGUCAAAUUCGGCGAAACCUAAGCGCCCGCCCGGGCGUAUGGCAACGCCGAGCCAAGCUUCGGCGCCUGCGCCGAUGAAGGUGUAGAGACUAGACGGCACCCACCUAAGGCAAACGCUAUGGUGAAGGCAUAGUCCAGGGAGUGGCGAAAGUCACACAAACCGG

- Variants of: B1
- methodDescription: reverse-splicing fitness (ratio to wild type); higher = more active; in vitro selection; Mg2+ level not given

[
  {
    "mutationDescriptor": "C82A A111C C150A C169U U176G",
    "reverse-splicing fitness": 0.0104
  },
  {
    "mutationDescriptor": "C82G A111C A120C A145U C150G C169A",
    "reverse-splicing fitness": 0.00941
  },
  {
    "mutationDescriptor": "C82A A111G A120U C150U C169G",
    "reverse-splicing fitness": 0.00566
  },
  {
    "mutationDescriptor": "C82U A120G A145G C150G U176G",
    "reverse-splicing fitness": 0.00539
  },
  {
    "mutationDescriptor": "C82U A120G A145C C150U C169U U176A",
    "reverse-splicing fitness": 0.0235
  },
  {
    "mutationDescriptor": "A111G A145C C150A C169A U176C",
    "reverse-splicing fitness": 0.00515
  },
  {
    "mutationDescriptor": "A111U A120C A145G C169A U176C",
    "reverse-splicing fitness": 0.0215
  },
  {
    "mutationDescriptor": "C82U A111G A145G C150G C169U U176G",
    "reverse-splicing fitness": 0.00654
  },
  {
    "mutationDescriptor": "C82A A111G A120C C150U C169A U176C",
    "reverse-splicing fitness": 0.0154
  },
  {
    "mutationDescriptor": "A120G A145G C150A U176C",
    "reverse-splicing fitness": 0.0809
  },
  {
    "mutationDescriptor": "A120U C169U",
    "reverse-splicing fitness": 0.257
  },
  {
    "mutationDescriptor": "C82G A111C A120C A145C C169G",
    "reverse-splicing fitness": 0.00843
  },
  {
    "mutationDescriptor": "C82G A111U A120U A145U C150A C169A",
    "reverse-splicing fitness": 0.00224
  },
  {
    "mutationDescriptor": "C82U A111C A120U A145G C150A C169A",
    "reverse-splicing fitness": 0.00616
  },
  {
    "mutationDescriptor": "C82A A111U A120U C150A U176C",
    "reverse-splicing fitness": 0.00653
  },
  {
    "mutationDescriptor": "C82G A111G A120G A145U C150U C169U U176A",
    "reverse-splicing fitness": 0.0186
  },
  {
    "mutationDescriptor": "C82G A111C A120U C169U U176G",
    "reverse-splicing fitness": 0.00247
  },
  {
    "mutationDescriptor": "A145C C150U C169U U176C",
    "reverse-splicing fitness": 0.0741
  },
  {
    "mutationDescriptor": "C82G A111G A120U A145G C150U C169A",
    "reverse-splicing fitness": 0.00681
  },
  {
    "mutationDescriptor": "C82U A111G A120C A145C C150U C169A U176G",
    "reverse-splicing fitness": 0.00468
  },
  {
    "mutationDescriptor": "C82A A111C A120C C150U C169A",
    "reverse-splicing fitness": 0.0121
  },
  {
    "mutationDescriptor": "C82G A111G C150U U176G",
    "reverse-splicing fitness": 0.0512
  },
  {
    "mutationDescriptor": "A111G A120U C169U U176A",
    "reverse-splicing fitness": 0.0277
  },
  {
    "mutationDescriptor": "C82A A111G A120G A145G C150G U176C",
    "reverse-splicing fitness": 0.00999
  },
  {
    "mutationDescriptor": "C82U A111G A120C C150U C169G U176G",
    "reverse-splicing fitness": 0.00447
  },
  {
    "mutationDescriptor": "A111C A120U C150U C169U U176A",
    "reverse-splicing fitness": 0.0122
  },
  {
    "mutationDescriptor": "C82U A111G A120G A145C C169U U176C",
    "reverse-splicing fitness": 0.0105
  },
  {
    "mutationDescriptor": "C82U A111G A120G A145U C169G U176A",
    "reverse-splicing fitness": 0.0112
  },
  {
    "mutationDescriptor": "A111G A120U A145U C150U C169G U176G",
    "reverse-splicing fitness": 0.00232
  },
  {
    "mutationDescriptor": "C82A A111C A120U A145G C150U U176C",
    "reverse-splicing fitness": 0.0108
  },
  {
    "mutationDescriptor": "A111U A120U A145U C150A C169U",
    "reverse-splicing fitness": 0.00692
  },
  {
    "mutationDescriptor": "C82A A111U A120U A145U C150G U176A",
    "reverse-splicing fitness": 0.00344
  },
  {
    "mutationDescriptor": "C82G A111U A120G A145G C150U U176G",
    "reverse-splicing fitness": 0.00777
  },
  {
    "mutationDescriptor": "A111U C150A C169A U176A",
    "reverse-splicing fitness": 0.0182
  },
  {
    "mutationDescriptor": "C82U A111U A145C C150A C169U U176G",
    "reverse-splicing fitness": 0.00574
  },
  {
    "mutationDescriptor": "C82A A145G C150A",
    "reverse-splicing fitness": 0.0995
  },
  {
    "mutationDescriptor": "C82A A111U A120C C150G C169U U176C",
    "reverse-splicing fitness": 0.011
  },
  {
    "mutationDescriptor": "C82G A111C A145U C150U C169A",
    "reverse-splicing fitness": 0.00854
  },
  {
    "mutationDescriptor": "C82A A111G A120C A145G C169A",
    "reverse-splicing fitness": 0.0112
  },
  {
    "mutationDescriptor": "A120U A145U C169A U176G",
    "reverse-splicing fitness": 0.00158
  },
  {
    "mutationDescriptor": "C82U A111U A120U A145C C150G C169G U176G",
    "reverse-splicing fitness": 0.00175
  },
  {
    "mutationDescriptor": "C82U A111C A120C A145G C169A U176A",
    "reverse-splicing fitness": 0.0198
  },
  {
    "mutationDescriptor": "C82U A120C A145C C150A U176C",
    "reverse-splicing fitness": 0.00962
  },
  {
    "mutationDescriptor": "A111G A120G A145C C150U C169U U176C",
    "reverse-splicing fitness": 0.0306
  },
  {
    "mutationDescriptor": "C82U A111G A120U A145C",
    "reverse-splicing fitness": 0.0379
  },
  {
    "mutationDescriptor": "C82G A120G C150U C169A U176A",
    "reverse-splicing fitness": 0.0184
  }
]
